Reference source: patent US20240101716A1

Molecular target: SIRPα-His protein (UniProt P78324)
Experiment: competition ELISA, SIRPα-His binding to coated CD47-Fc
observed.property: IC50
Give your result as the value with the unit written after it.

HSP210-03-hz52 (antibody, V domains shown) VH: QVQLVQSGAEVKKPGSSVKVSCKASGYTFTSNYIHWVRQAPGQGLEWMGWIYPGDADTNYNQKFNGRVTLTADKSTSTAYMELSSLRSEDTAVYYCAINYGGIWFAYWGQGTLVTVSS VL: DIQMTQSPSSLSASVGDRVTITCQASQDIGNKLIWFQQKPGKAPKLLIHYVTNLPGGVPSRFSGSRSGSDYTLTISSLQPEDFATYYCLQYKQNPLTFGQGTKLEIK	0.13 nM

// next item, IC50 requested
Notebook: HSP210-01-hz62 (antibody, V domains shown) VH: QVQLQESGPGLVKPSETLSLTCTFSGFSLNTYDIGMGWIRQPPGKGLEWIAHIWWNDREYYNPALQSRVTISKDTSKTQVSLKLSSVTAADTAVYYCVRIDYFGSGQAWFTYWGQGTLVTVSS VL: EIVLTQSPGTLSLSPGERATLSCSSSSTISSTYLHWYQQKPGQAPRLLISGTSNLASGIPDRFSGSGSGTDYTLTISRLEPEDVAVYYCQQGSRIPFTFGQGTKLEIK , IC50 read as 0.16 nM
